Provenance of the data: patent US20220380463A1

# assaySystem: T1, human CD3 on CD3+ Jurkat cells (human, UniProt P07766 23-207)
# T1 construct: whole, on cells; Native CD3 complex on cells; the other CD3 chains are not specified for this assay; also called Human CD3+ Jurkat
# T1 sequence (P07766 23-207): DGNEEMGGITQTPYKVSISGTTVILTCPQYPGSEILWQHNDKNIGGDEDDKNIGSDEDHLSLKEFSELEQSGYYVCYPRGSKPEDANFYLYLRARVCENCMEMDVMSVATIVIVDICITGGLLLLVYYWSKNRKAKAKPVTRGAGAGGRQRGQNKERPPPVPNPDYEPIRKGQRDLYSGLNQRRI
# assayMethodText: flow cytometry, 100 nM IgG on CD3+ Jurkat cells, pH 6.0
# Description: Specificity of the anti-CD3 antibodies for human CD3+ Jurkat cells compared to CHO-S cells at pH 6.0 and 7.4 was determined using a FACS cell binding assay. Briefly, CD3+ human Jurkat cells and CHO-S cells were thawed and washed with cold PBSF buffer, pH 7.4 (PBS+0.1% BSA, pH 7.4). About 200,000 cells were aliquoted per well of a 96-well plate and pelleted by centrifugation (5 minutes at 500×g). […] Binding was analyzed on FACS Canto II. Cell binding assays. […] Binding was analyzed on FACS Canto II.
measuredQuantity: MFI pH 6.0 (MFI)
Express your answer in MFI, writing the number without its unit.

Here are 2 binders together with their reported answers.
{"binder": "SAD10318_P03_C09 (ADI-48609) (antibody, V domains shown, IgG; also called Ab205) VH: QVQLVQSGAEVKKPGASVKVSCKASGFNIKDYYMHWVRQAPGQRLEWMGWIDLENANTIYDAKFQGRVTITRDTSASTAYMELSSLRSEDTAVYYCARDAYHRYFYDHWGQGTLVTVSS VL: DIVMTQSPDSLAVSLGERATINCKSSQSLLNAHTGKNHLAWYQQKPGQPPKLLIYWASTRESGVPDRFSGSGSGTDFTLTISSLQAEDVAVYYCKQSYHHRTFGGGTKVEIK", "reportedResult": 346}
{"binder": "SAD10319_P03_C07 (ADI-48634) (antibody, V domains shown, IgG; also called Ab17) VH: QVQLVQSGAEVKKPGASVKVSCKASGYTFESYDMHWVRQAPGQRLEWMGWIDAGTGATTYSQKFQGRVTITRDTSASTAYMELSSLRSEDTAVYYCARDAYHHYFYDVWGQGTLVTVSS VL: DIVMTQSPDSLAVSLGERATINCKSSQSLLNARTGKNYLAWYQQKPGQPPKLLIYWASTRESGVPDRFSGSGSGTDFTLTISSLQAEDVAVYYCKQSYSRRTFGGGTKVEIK", "reportedResult": 651}

// next entry
Quick note, MFI pH 6.0 for SAD10318_P04_H11 (ADI-48617) (antibody, V domains shown, IgG; also called Ab223) VH: QVQLVQSGAEVKKPGASVKVSCKASGFNIKDYYMHWVRQAPGQRLEWMGWIDLENANTIYDAKFQGRVTITRDTSASTAYMELSSLRSEDTAVYYCARDHYGRYFYDHWGQGTLVTVSS VL: DIVMTQYPDSLAVSLGERATINCKSSQSLLNAHTGHNYLAWYQQKPGQPPKLLIYWASTRESGVPDRFSGSGSGTDFTLTISSLQAEDVAVYYCHQSYSHRTFGGGTKVEIK landed at 166
